Each recorded value in this set is attributed to paper PMC6286156.

test system: lysosomal labelling (LysoTracker Red), U2OS cells; assay: Counterscreen: LysoTracker Red; assay type: cell-based, human; conditions: Homo sapiens, read-out: Counterscreen (human cells) LTR signal (% control)
Where a name gives a salt, the structure may show the parent alone.
Quick list: activity at 30 µM per entry.
The reply should be a number in %, with the unit left off.

CSc1ccc2c(c1)N(CCC1CCCCN1C)c1ccccc1S2 (centres unmarked) [Thioridazine hydrochloride, thioridazine hydrochloride] ... 26.2
CC(=O)SCC(Cc1ccccc1)C(=O)NCC(=O)OCc1ccccc1 (centres unmarked) ... 92.8
Cl.Fc1ccc(C(OCCCc2c[nH]cn2)c2ccc(F)cc2)cc1 ... 56.9

input: Return reported activity at 30 µM; argument: OCCN1CCN(CCCN2c3ccccc3Sc3ccc(C(F)(F)F)cc32)CC1 [Fluphenazine dihydrochloride, fluphenazine dihydrochloride]
output: 69.8

input: Return reported activity at 30 µM; argument: CCN(CC)CC#CCOC(=O)C(O)(c1ccccc1)C1CCCCC1 (centres unmarked) [Oxybutynin Chloride, oxybutynin chloride]
output: 59.2
